src = PubChem BioAssay AID1963982

Test system: 313798-341-R-J2-PDC spheroids, viability;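 note: spheroids exposed to compounds for seven days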
PROCEDURE_SUMMARY: Anticancer human tumor 313798-341-R-J2-PDC patient-derived cervical squamous cell carcinoma cell line growth inhibition [PI3K]
EXPERIMENTAL_CONTEXT: curve of first compound; second compound 0.316 µM; spheroids with HUVEC and MSC

| COMPOUND | IC50 |
| --- | --- |
| CC(C)n1nc(-c2ccc3oc(N)nc3c2)c2c(N)ncnc21 + CC(Nc1ccc2c(c1)OCCn1cc(N3C(=O)OCC3C(F)F)nc1-2)C(N)=O | 14.2 nM |
| CC(C)n1nc(-c2ccc3oc(N)nc3c2)c2c(N)ncnc21 + Cc1nc(NC(=O)N2CCCC2C(N)=O)sc1-c1ccnc(C(C)(C)C(F)(F)F)c1 | 46.6 nM |
| C[C@@H](NC(=O)c1ncnc(N)c1Cl)c1ncc(C(=O)Nc2cc(C(F)(F)F)c(Cl)cn2)s1 + Cc1nc(NC(=O)N2CCCC2C(N)=O)sc1-c1ccnc(C(C)(C)C(F)(F)F)c1 | > 10000 nM |
| CC1(C)CCC(Nc2ncc(C(F)(F)F)c(-c3c[nH]c4c(P(C)(C)=O)c(C#N)ccc34)n2)CN1 (stereo unspecified) + CC(Nc1ccc2c(c1)OCCn1cc(N3C(=O)OCC3C(F)F)nc1-2)C(N)=O | < 31.6 nM |
| CC(C)NCC(C(=O)N1CCN(c2ncnc3c2C(C)CC3O)CC1)c1ccc(Cl)cc1 (stereo unspecified) + COc1c(OCCCN2CCOCC2)ccc2c3n(c(=NC(=O)c4cnc(N)nc4)nc12)CCN3 | < 31.6 nM |
| CC(C)n1nc(-c2ccc3oc(N)nc3c2)c2c(N)ncnc21 + COc1c(OCCCN2CCOCC2)ccc2c3n(c(=NC(=O)c4cnc(N)nc4)nc12)CCN3 | < 0.316 nM |
| Cn1ncnc1[C@H]1c2n[nH]c(=O)c3cc(F)cc(c23)N[C@@H]1c1ccc(F)cc1 + CC(Nc1ncnc2nc[nH]c12)c1cc2cccc(Cl)c2c(=O)n1-c1ccccc1 | > 100 nM |
| CC(C)NCC(C(=O)N1CCN(c2ncnc3c2C(C)CC3O)CC1)c1ccc(Cl)cc1 (stereo unspecified) + Cc1nc(NC(=O)N2CCCC2C(N)=O)sc1-c1ccnc(C(C)(C)C(F)(F)F)c1 | 1620 nM |
| CC1(C)CCC(CN2CCN(c3ccc(C(=O)NS(=O)(=O)c4ccc(NCC5CCOCC5)c([N+](=O)[O-])c4)c(Oc4cnc5[nH]ccc5c4)c3)CC2)=C(c2ccc(Cl)cc2)C1 + CC(Nc1ccc2c(c1)OCCn1cc(N3C(=O)OCC3C(F)F)nc1-2)C(N)=O | 2190 nM |
| Cn1nccc1Nc1nccc(-c2ccn(C(CO)c3ccc(Cl)c(F)c3)c(=O)c2)n1 (stereo unspecified) + Cc1nc(NC(=O)N2CCCC2C(N)=O)sc1-c1ccnc(C(C)(C)C(F)(F)F)c1 | > 10000 nM |
| Cn1ncnc1[C@H]1c2n[nH]c(=O)c3cc(F)cc(c23)N[C@@H]1c1ccc(F)cc1 + CC(Nc1ccc2c(c1)OCCn1cc(N3C(=O)OCC3C(F)F)nc1-2)C(N)=O | > 100 nM |
